Lab note: pIC50 readings collected with Cyclin-dependent kinase 3 (Homo sapiens) for the following compounds.
Sequence (Q00526 whole entry): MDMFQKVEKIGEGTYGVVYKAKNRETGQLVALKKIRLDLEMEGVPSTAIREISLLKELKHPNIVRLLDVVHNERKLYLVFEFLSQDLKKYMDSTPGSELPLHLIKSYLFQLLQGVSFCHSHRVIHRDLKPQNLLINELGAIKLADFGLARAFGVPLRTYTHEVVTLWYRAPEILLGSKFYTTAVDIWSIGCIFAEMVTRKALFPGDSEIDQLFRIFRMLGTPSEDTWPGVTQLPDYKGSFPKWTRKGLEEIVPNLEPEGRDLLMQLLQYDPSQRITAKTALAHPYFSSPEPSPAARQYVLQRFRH
Units for pIC50: none; it is -log10 of a concentration expressed in mol/L.

Consider the reported pIC50 for these compounds:
| entry_smiles | pIC50 |
| --- | --- |
| CC(=O)N[C@@H]1CCC[C@H](C(=O)Nc2cc(-c3cnn4c3CC(C)(C)C4)c(Cl)cn2)C1 | 7.64 |
| CC(=O)N[C@@H]1CCC[C@H](C(=O)Nc2cc(-c3cnn4c3CCCC4)c(Cl)cn2)C1 | 7.08 |

Okay, next one:
query: Tell me the measured pIC50 of `CC(=O)N[C@@H]1CCC[C@H](C(=O)Nc2cc(-c3cnn4c3CC(C)(C)C4)c(F)cn2)C1` , please.
result: 7.70
